tested on: purified bovine brain tubulin; test: Tubulin polymerization (optical density at 350 nm); format: biochemical; set-up: key: −: no effect; +/−: minimal or questionable effect; +: weak effect; ++: strong effect; +++: very strong effect equivalent to discodermolide; conditions: 10 μM compound, 1 mg/mL tubulin; subjective rating, Table 11

molecule: C=CC=CC(C)C(OC(N)=O)C(C)C(O)C(C)CC(C)=CC(C)C(O)C(C)C=CC(O)CC1OC(=O)CC(O)C1C (stereo not shown) [2-Desmethyldiscodermolide (II), 2-desmethyldiscodermolide]
assayed.system: purified bovine brain tubulin
Purified tubulin polymerization by 10 μM: ++
--
molecule: C=C/C=C\[C@H](C)[C@H](OC(N)=O)[C@@H](C)[C@H](O)[C@@H](C)C/C(C)=C\[C@H](C)[C@@H](O)[C@@H](C)/C=C\[C@@H](O)C[C@@H]1OC(=O)[C@@H](C)[C@@H](O)[C@H]1C [2-Epidiscodermolide (IV), 2-epidiscodermolide]
assayed.system: purified bovine brain tubulin
Purified tubulin polymerization by 10 μM: ++
--
molecule: C=CC=CC(C)C(O)C(C)C(O)C(C)CC(C)=CC(C)C(O)C(C)C=CC(O)CC1OC(=O)C(C)C(O)C1C (stereo not shown) [19-Desaminocarbonyldiscodermolide (III), 19-desaminocarbonyldiscodermolide]
assayed.system: purified bovine brain tubulin
Purified tubulin polymerization by 10 μM: +
--
molecule: C=C/C=C\[C@H](C)[C@H](OC(N)=O)[C@@H](C)[C@H](O)[C@@H](C)C/C(C)=C\[C@H](C)[C@@H](O)[C@@H](C)/C=C\[C@@H](O)C[C@@H]1OC(=O)[C@H](C)[C@@H](O)[C@H]1C [Discodermolide (I), discodermolide]
assayed.system: purified bovine brain tubulin
Purified tubulin polymerization by 10 μM: +++

The reported numbers originate from patent US6495594B2.
